// data source = PubChem BioAssay AID485297

# ASSAY_NOTES: qHTS Assay for Rab9 Promoter Activators; further: nearly all actives have a fitted effect of over 60% in size
# SETTINGS: Huh7 Rab9 promoter-luciferase reporter, luminescence, 24 h; series mostly up to 9.22 µM
The whole screen tested about 320,000 compounds, of which about 9,100 (2.8%) were called active. Inconclusive results (about 3%) are left out. The call rests on the fitted dose curve; in most records, active means well fitted activation curve with a large enough effect; inconclusive means small, poorly fitted or top-dose-only effect; inactive means no such curve, though single readings can be large or run the other way. The list comes from a sample in which actives are over-represented; it also holds close analogues and randomly drawn compounds.
Your response should consist of one outcome taken from True (active), False (inactive)

For orientation, consider the following solved cases.
>>> group_label("COc1cc(/C=N/NC(=O)c2ccc(N3CCCC3=O)cc2)ccc1O")
"True"
>>> group_label("CCOc1ccc(N/C=C/C(=O)c2cc(OC)c(OC)c(OC)c2)cc1")
"False"
>>> group_label("Cc1noc(NS(=O)(=O)c2ccc(N/C=C/C(=O)c3ccccc3)cc2)c1C")
"False"
>>> group_label("Cn1c(SCC(=O)Nc2ccc(N3CCOCC3)cc2)nnc1C(F)(F)F")
"False"
>>> group_label("CC(C(=O)N(C)CC(=O)Nc1ccccc1C(F)(F)F)N1C(=O)c2ccccc2C1=O (stereo not drawn)")
"False"

Query block: What did the test return for CCOc1ccc(N/C=C/C(=O)c2ccccc2)cc1 ?
Result block: True

Query block: What did the test return for Cc1ccc2sc(NNC(=O)c3ccc4c(c3)OCCO4)nc2c1C ?
Result block: False

Query block: What did the test return for COc1ccc(CCNC(=O)COc2ccc3c(c2)OCO3)cc1 ?
Result block: False

Query block: What did the test return for Cc1ccc(SCCC(=O)NC(C(C)C)C(C)C)cc1 ?
Result block: False

Query block: What did the test return for CCOc1ccc(NC(=S)N2CCC(NC(=O)c3ccccc3)CC2)cc1 ?
Result block: False

Query block: What did the test return for COc1ccc(C(=O)Nc2ccccc2C(=O)N/N=C/c2ccc(O)c(OC)c2)cc1 ?
Result block: False

###

# ASSAY_NOTES: qHTS Assay for Rab9 Promoter Activators; further: nearly all actives have a fitted effect of over 60% in size; further: potency means the concentration at half of the fitted maximal effect
# SETTINGS: Huh7 Rab9 promoter-luciferase reporter, luminescence, 24 h; series mostly up to 9.22 µM
Out of some 320,000 compounds screened, about 9,100 (2.8%) were called active. Inconclusive results (about 3%) are left out. Shown is part of a subset that was picked to be rich in actives.
MEASUREMENT_TYPE: Potency

>>> result("O=C(Nc1ccc(O)cc1)c1ccc(NC(=O)c2ccco2)cc1")
"inactive"
>>> result("CC(C)(C)c1nnc(N/N=C/c2ccc(O)cc2)n(N)c1=O")
"inactive"
>>> result("CCOC(=O)N1CCN(S(=O)(=O)c2ccc3c(c2)C(C)C(=O)N3)CC1 (stereo unspecified)")
"inactive"
>>> result("Cc1cc(C)cc(NC(=O)N2CCCCCCC2)c1")
"inactive"
>>> result("C=CCn1c(SCC(=O)NC(=O)Cc2ccccc2)nc2ccccc2c1=O")
"inactive"

Query block: Give the reported value of Potency for this record: CC(C#N)(NC(=O)CN1CCN(S(=O)(=O)c2cc(C(F)(F)F)ccc2Cl)CC1)C1CC1 (stereo unspecified)
Result block: inactive

Query block: Give the reported value of Potency for this record: COc1ccccc1OCCOc1ccc(/C=N/n2cnnc2)cc1
Result block: inactive

Query block: Give the reported value of Potency for this record: Oc1ccccc1-c1cc(-c2ccc(Cl)cc2)n[nH]1
Result block: 2510 nM (active)

Query block: Give the reported value of Potency for this record: O=C(NCCS(=O)(=O)NCc1ccc(F)cc1)c1ccccc1
Result block: inactive

Query block: Give the reported value of Potency for this record: CCn1c2ccc(F)cc2c2nnc(SCCN3CCOCC3)nc21
Result block: inactive
